Measured values drawn from patent US7569585B2 for this set.

- study target: human alpha2A-adrenergic receptor (Homo sapiens)
- Construct: human HT29 cells (RB-HAL2A, NEN, Zaventem, Belgium), which endogenously express the alpha2A-adrenergic receptor; purchased NEN, Zaventem, Belgium RB-HAL2A; host or cells: human HT29 cells (endogenous expression), membrane preparation
- Sequence (P08913 1-465): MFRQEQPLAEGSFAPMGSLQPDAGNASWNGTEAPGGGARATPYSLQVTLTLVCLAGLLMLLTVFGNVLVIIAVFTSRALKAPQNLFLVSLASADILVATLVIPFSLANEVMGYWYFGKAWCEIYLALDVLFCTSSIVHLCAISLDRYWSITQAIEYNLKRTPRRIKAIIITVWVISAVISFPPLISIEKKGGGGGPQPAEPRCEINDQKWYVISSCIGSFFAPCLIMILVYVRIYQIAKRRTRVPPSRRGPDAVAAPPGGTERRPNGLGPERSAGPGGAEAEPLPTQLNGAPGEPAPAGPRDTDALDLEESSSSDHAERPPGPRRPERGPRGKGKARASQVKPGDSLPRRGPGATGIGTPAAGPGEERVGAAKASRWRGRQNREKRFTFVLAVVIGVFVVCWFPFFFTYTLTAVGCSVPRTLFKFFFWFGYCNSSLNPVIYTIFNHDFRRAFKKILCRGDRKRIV
- protocol details: Binding affinity to human alpha2A-adrenergic receptor ([3H]-MK-912 displacement, HT29 cell membrane preparation)
- protocol conditions: compound concentration 10 NM [sic] (method: 10 μmol/l); displacement of 0.5 nmol/l [3H]-MK-912; HT29 membranes; pH 7.4
measurement type: inhibition at 10 µM (%)

molecule="OC1(Cc2ccc(F)cc2)C(CN2CCCCC2)CCCC1CN1CCCCC1 (centres unmarked)" measurement_type="inhibition at 10 µM" value_observed=87
molecule="OC1(Cc2c(F)cccc2Cl)C(CN2CCCCC2)CCCC1CN1CCCCC1 (centres unmarked)" measurement_type="inhibition at 10 µM" value_observed=68

A: OC1(Cc2ccc(Cl)cc2Cl)C(CN2CCCCC2)CCCC1CN1CCCCC1 (centres unmarked)
B: OC1(c2cccc(Cl)c2)C(CN2CCCCC2)CCCC1CN1CCCCC1 (centres unmarked)
C: COc1ccccc1C1(O)C(CN2CCCCC2)CCCC1CN1CCCCC1 (centres unmarked)
IN: Please list these in order of increasing inhibition at 10 µM. Thank you! Give the labels in the order requested.
OUT: C, B, A
(C: 30%, B: 51%, A: 100%)

a: Cc1cccc(CC2(O)C(CN3CCCCC3)CCCC2CN2CCCCC2)c1 (centres unmarked)
b: OC1(c2ccc(F)c(Cl)c2)C(CN2CCCCC2)CCCC1CN1CCCCC1 (centres unmarked)
c: OC1(c2cccc(C(F)(F)F)c2)C(CN2CCCCC2)CCCC1CN1CCCCC1 (centres unmarked)
IN: # desc sort on inhibition at 10 µM across 3 molecules Provide the labels, sequenced as the question asks.
OUT: a, c, b
(a: 100%, c: 56%, b: 38%)

a: Cc1ccccc1CC1(O)C(CN2CCCCC2)CCCC1CN1CCCCC1 (centres unmarked)
b: OC1(c2cccc(F)c2)C(CN2CCCCC2)CCCC1CN1CCCCC1 (centres unmarked)
IN: Which numeric inhibition at 10 µM is bigger, that of a or that of b ? Respond using the label that marks the chosen record.
OUT: a

----------
- study target: human alpha2A-adrenergic receptor (Homo sapiens, UniProt P08913)
- Construct: human HT29 cells (RB-HAL2A, NEN, Zaventem, Belgium), which endogenously express the alpha2A-adrenergic receptor; purchased NEN, Zaventem, Belgium RB-HAL2A; host or cells: human HT29 cells (endogenous expression), membrane preparation
- protocol details: Binding affinity to human alpha2A-adrenergic receptor ([3H]-MK-912 displacement, HT29 cell membrane preparation)
- protocol conditions: compound concentration 10 NM [sic] (method: 10 μmol/l); displacement of 0.5 nmol/l [3H]-MK-912; HT29 membranes; pH 7.4
measurement type: inhibition at 10 µM (%)

Take a look at these entries with their results.
molecule="OC1(c2ccc(Cl)c(C(F)(F)F)c2)C(CN2CCCCC2)CCCC1CN1CCCCC1 (stereo not shown)" measurement_type="inhibition at 10 µM" value_observed=26
molecule="OC1(Cc2ccc(Cl)cc2)C(CN2CCCCC2)CCCC1CN1CCCCC1 (stereo not shown)" measurement_type="inhibition at 10 µM" value_observed=88
molecule="OC1(Cc2cccc(Cl)c2)C(CN2CCCCC2)CCCC1CN1CCCCC1 (stereo not shown)" measurement_type="inhibition at 10 µM" value_observed=98
molecule="OC1(Cc2ccccc2Cl)C(CN2CCCCC2)CCCC1CN1CCCCC1 (stereo not shown)" measurement_type="inhibition at 10 µM" value_observed=100

1: Cc1ccc(C)c(CC2(O)C(CN3CCCCC3)CCCC2CN2CCCCC2)c1 (stereo not shown)
2: OC1(c2cc(Cl)cc(Cl)c2)C(CN2CCCCC2)CCCC1CN1CCCCC1 (stereo not shown)
IN: Of 1 and 2 , which carries the smaller reported inhibition at 10 µM figure? // return label of chosen record
OUT: 2
(2: 33%, 1: 100%)
